FYI, the data here is from ChEMBL document CHEMBL4354868.

# Tested on: Acinetobacter baumannii ATCC 17978
# experiment_notes: Inhibition of Acinetobacter baumannii ATCC 17978 OXA-24/40 expressed in Escherichia coli BL21 assessed as ratio of Kinact/Ki using nitrocefin as substrate measured after 15 mins by spectrophotometry analysis

{"molecule_smiles": "C[C@]1(COC(=O)Cc2ccc(O)c(O)c2)[C@H](C(=O)O)N2C(=O)/C(=C/c3ccccn3)[C@H]2S1(=O)=O", "Ratio, M⁻¹ s⁻¹": 98200}
{"molecule_smiles": "C[C@]1(COC(=O)Cc2ccc(O)c(O)c2)[C@H](C(=O)O)N2C(=O)/C(=C/c3ccc(F)cn3)[C@H]2S1(=O)=O", "Ratio, M⁻¹ s⁻¹": 48900}
{"molecule_smiles": "C[C@]1(COC(=O)Cc2ccc(O)c(O)c2)[C@H](C(=O)O)N2C(=O)/C(=C/c3cc(Br)ccn3)[C@H]2S1(=O)=O", "Ratio, M⁻¹ s⁻¹": 159000}
